These data points were gathered from patent US20120114682A1.

Provide the recorded Kd for the entries that follow.
- Study Target: T1, Fibrinogen fragment D (human, UniProt P02671 130-216; P02675 164-491; P02679 114-432, limits assumed)
- T1 construct: domain: Fragment D (or D-domain); Made by plasmin digestion of human fibrinogen and purified on GPRPAA beads; holds the C-terminal polymerization pockets without the N-terminal knobs; immobilised by amine coupling on the SPR chip; also called D-domain
- T1 sequence (looked up) 1: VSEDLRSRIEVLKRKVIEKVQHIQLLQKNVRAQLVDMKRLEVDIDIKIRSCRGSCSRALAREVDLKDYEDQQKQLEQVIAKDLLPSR
- T1 sequence (looked up) 2: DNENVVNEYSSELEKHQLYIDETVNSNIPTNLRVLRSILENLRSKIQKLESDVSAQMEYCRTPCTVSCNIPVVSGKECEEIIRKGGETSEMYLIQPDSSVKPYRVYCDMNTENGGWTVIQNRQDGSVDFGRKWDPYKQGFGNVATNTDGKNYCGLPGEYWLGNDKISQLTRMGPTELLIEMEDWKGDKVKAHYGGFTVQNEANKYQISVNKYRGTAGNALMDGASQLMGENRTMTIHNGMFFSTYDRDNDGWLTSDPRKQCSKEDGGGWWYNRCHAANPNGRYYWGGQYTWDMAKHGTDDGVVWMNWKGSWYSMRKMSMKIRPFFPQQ
- T1 sequence (looked up) 3: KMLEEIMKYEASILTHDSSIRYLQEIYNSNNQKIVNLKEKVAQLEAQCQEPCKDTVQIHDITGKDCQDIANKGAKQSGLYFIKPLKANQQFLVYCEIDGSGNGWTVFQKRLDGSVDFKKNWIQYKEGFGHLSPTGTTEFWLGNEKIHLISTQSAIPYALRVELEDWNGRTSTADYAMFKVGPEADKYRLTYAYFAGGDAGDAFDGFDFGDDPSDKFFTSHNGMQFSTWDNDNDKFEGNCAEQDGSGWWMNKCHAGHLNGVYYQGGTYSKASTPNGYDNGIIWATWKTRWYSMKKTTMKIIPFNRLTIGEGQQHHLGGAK
- Test Protocol: SPR, heterogeneous ligand model, site 1 (KD1 = kd/ka)

Example results:
binder="GPRPPERC (Synthetic (GenScript); also called knob 'A' peptide)" result="18.2 µM"
binder="GPRVVAAC (Synthetic (GenScript); also called knob 'A' peptide)" result="48.5 µM"
binder="GPRPAAC (Synthetic (GenScript); kept reduced with immobilised TCEP; also called gold standard GPRP mimic; knob 'A' peptide)" result="4.53 µM"
binder="GPRPFPAC (Synthetic (GenScript); also called knob 'A' peptide)" result="3.73 µM"

// next item, Kd requested
Which measured Kd value corresponds to GPRVVERC (Synthetic (GenScript); also called knob 'A' peptide) ?
53.9 µM
